B1: LINE1-full (parent)
chain: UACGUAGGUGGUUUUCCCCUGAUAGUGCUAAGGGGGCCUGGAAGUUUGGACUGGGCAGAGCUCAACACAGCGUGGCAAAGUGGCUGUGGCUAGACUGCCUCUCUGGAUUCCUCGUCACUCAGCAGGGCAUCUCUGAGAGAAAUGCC

- Variants of: B1
- PROTOCOL DESCRIPTION: self-cleavage, relative activity (ratio to wild type); higher = more cleavage; in vitro, sequencing; the parent is a self-cleaving ribozyme
READOUT: self-cleavage

{"VARIANT CODE": "A78G C113U", "VALUE REPORTED": 0.93}
{"VARIANT CODE": "A24G U100C", "VALUE REPORTED": 1.32}
{"VARIANT CODE": "U23A A79G", "VALUE REPORTED": 1.31}
{"VARIANT CODE": "U39C A57G", "VALUE REPORTED": 0.44}
{"VARIANT CODE": "U108C U130C", "VALUE REPORTED": 1.66}
{"VARIANT CODE": "U73C A79G", "VALUE REPORTED": 1.79}
{"VARIANT CODE": "U5C A65G", "VALUE REPORTED": 0.15}
{"VARIANT CODE": "A30G A59G", "VALUE REPORTED": 0.11}
{"VARIANT CODE": "A77G U112C", "VALUE REPORTED": 2.18}
{"VARIANT CODE": "C84G A129G", "VALUE REPORTED": 0.2}
{"VARIANT CODE": "C18A G89A", "VALUE REPORTED": 0.05}
{"VARIANT CODE": "U73C C145U", "VALUE REPORTED": 1.53}
{"VARIANT CODE": "U20G U134C", "VALUE REPORTED": 0.64}
{"VARIANT CODE": "G89A A117G", "VALUE REPORTED": 0.05}
{"VARIANT CODE": "C3U A117C", "VALUE REPORTED": 0.75}
{"VARIANT CODE": "A31U A43G", "VALUE REPORTED": 0.9}
{"VARIANT CODE": "A22U A117U", "VALUE REPORTED": 1.36}
{"VARIANT CODE": "G8C U143A", "VALUE REPORTED": 2.06}
{"VARIANT CODE": "A2G A42G", "VALUE REPORTED": 0.72}
{"VARIANT CODE": "U1C U46A", "VALUE REPORTED": 0.43}
{"VARIANT CODE": "U26A A31C", "VALUE REPORTED": 1.04}
{"VARIANT CODE": "A43G G93A", "VALUE REPORTED": 0.1}
{"VARIANT CODE": "U13C C71U", "VALUE REPORTED": 0.58}
{"VARIANT CODE": "A43G G70U", "VALUE REPORTED": 0.15}
{"VARIANT CODE": "U46C U109C", "VALUE REPORTED": 1.41}
{"VARIANT CODE": "C17A U45C", "VALUE REPORTED": 1.35}
{"VARIANT CODE": "U45G U47A", "VALUE REPORTED": 1.19}
{"VARIANT CODE": "C123A A141G", "VALUE REPORTED": 1.35}
{"VARIANT CODE": "C123A U134C", "VALUE REPORTED": 1.04}
{"VARIANT CODE": "G36C U143C", "VALUE REPORTED": 1.43}
{"VARIANT CODE": "U102A A121G", "VALUE REPORTED": 1.64}
{"VARIANT CODE": "U23A U62C", "VALUE REPORTED": 0}
{"VARIANT CODE": "A6G U104C", "VALUE REPORTED": 1.23}
{"VARIANT CODE": "G55U U115A", "VALUE REPORTED": 0.14}
{"VARIANT CODE": "G75A U81C", "VALUE REPORTED": 0.67}
{"VARIANT CODE": "G75A U112A", "VALUE REPORTED": 0.91}
{"VARIANT CODE": "G32A U115A", "VALUE REPORTED": 1.5}
{"VARIANT CODE": "U12A A79G", "VALUE REPORTED": 1.13}
{"VARIANT CODE": "C71U U73A", "VALUE REPORTED": 0.31}
{"VARIANT CODE": "U26A C66A", "VALUE REPORTED": 0.05}
{"VARIANT CODE": "G33U U96A", "VALUE REPORTED": 0.06}
{"VARIANT CODE": "G86U U96G", "VALUE REPORTED": 0.13}
{"VARIANT CODE": "U100A U102C", "VALUE REPORTED": 1.7}
{"VARIANT CODE": "U45A U87C", "VALUE REPORTED": 0.24}
{"VARIANT CODE": "U85C A124G", "VALUE REPORTED": 0.13}
{"VARIANT CODE": "A22G A67G", "VALUE REPORTED": 0.63}

These data points were gathered from the RNAGym collection of RNA variant scans (doi:10.7554/elife.90254).
